attribute.measured: IC50 (µM)
Numbers only here, please. The scale is µM.

Task: Fetch value of IC50 on Dual specificity protein phosphatase 3 (Homo sapiens) for "CC1(C)CC(NC(=O)/C=C/c2ccc(-c3ccc([N+](=O)[O-])cc3)o2)CC(C)(C)N1[O]" .
Sequence (P51452 whole entry): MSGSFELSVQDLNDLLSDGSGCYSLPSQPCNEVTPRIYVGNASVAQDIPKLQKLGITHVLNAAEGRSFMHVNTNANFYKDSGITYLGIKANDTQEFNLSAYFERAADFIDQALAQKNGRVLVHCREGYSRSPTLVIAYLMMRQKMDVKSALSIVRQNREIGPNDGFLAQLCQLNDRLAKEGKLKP
Output: 1000

Task: Fetch value of IC50 on Dual specificity protein phosphatase 3 (Homo sapiens) for "CC1(C)CC(NCc2ccc(-c3ccc(O)c(C(=O)O)c3)o2)CC(C)(C)N1[O]" .
Output: 241

Task: Fetch value of IC50 on Dual specificity protein phosphatase 3 (Homo sapiens) for "CC1(C)CC(NC(=O)CCCC(=O)Nc2ccc(O)c(C(=O)O)c2)CC(C)(C)N1[O]" .
Output: 1000

Task: Fetch value of IC50 on Dual specificity protein phosphatase 3 (Homo sapiens) for "COC(=O)c1cc(-c2ccc(CNC3CC(C)(C)N([O])C(C)(C)C3)o2)ccc1O" .
Output: 850

Task: Fetch value of IC50 on Dual specificity protein phosphatase 3 (Homo sapiens) for "CC1(C)CC(NC(=O)/C=C/c2ccc(-c3cccc([N+](=O)[O-])c3)o2)CC(C)(C)N1[O]" .
Output: 200

Task: Fetch value of IC50 on Dual specificity protein phosphatase 3 (Homo sapiens) for "CC1(C)CC(NC(=O)/C=C/c2ccc(-c3ccc(O)c(C(=O)O)c3)o2)CC(C)(C)N1[O]" .
Output: 12

* * *

Target: Tyrosine-protein phosphatase non-receptor type 7 (Homo sapiens, UniProt P35236)
Sequence (P35236 whole entry): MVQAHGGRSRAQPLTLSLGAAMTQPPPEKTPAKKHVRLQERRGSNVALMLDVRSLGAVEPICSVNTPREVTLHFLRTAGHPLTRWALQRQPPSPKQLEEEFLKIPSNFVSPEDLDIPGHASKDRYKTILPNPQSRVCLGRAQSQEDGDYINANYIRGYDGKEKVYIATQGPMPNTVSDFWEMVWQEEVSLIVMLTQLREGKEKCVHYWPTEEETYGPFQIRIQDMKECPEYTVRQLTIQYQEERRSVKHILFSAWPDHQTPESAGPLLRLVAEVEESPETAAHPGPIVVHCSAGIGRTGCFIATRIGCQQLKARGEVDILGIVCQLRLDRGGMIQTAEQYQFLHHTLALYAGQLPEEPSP
pIC50: −log10 of the molar value.
For each of the compounds below, state its pIC50.

Task: Give the value of pIC50 reported for the following: "CC1(C)CC(NC(=O)/C=C/c2ccc(-c3ccc(O)c(C(=O)O)c3)o2)CC(C)(C)N1[O]"
Output: 5.12

Task: Give the value of pIC50 reported for the following: "CC1(C)CC(NCc2ccc(-c3ccc(O)c(C(=O)O)c3)o2)CC(C)(C)N1[O]"
Output: < 3.00

Task: Give the value of pIC50 reported for the following: "CC1(C)CC(NC(=O)/C=C/c2ccc(-c3cccc([N+](=O)[O-])c3)o2)CC(C)(C)N1[O]"
Output: 3.68

Task: Give the value of pIC50 reported for the following: "COC(=O)c1cc(-c2ccc(CNC3CC(C)(C)N([O])C(C)(C)C3)o2)ccc1O"
Output: < 3.00

Task: Give the value of pIC50 reported for the following: "CC1(C)CC(NC(=O)/C=C/c2ccc(-c3ccc([N+](=O)[O-])cc3)o2)CC(C)(C)N1[O]"
Output: < 3.00

Task: Give the value of pIC50 reported for the following: "CC1(C)CC(NC(=O)CCCC(=O)Nc2ccc(O)c(C(=O)O)c2)CC(C)(C)N1[O]"
Output: < 3.00

Task: Give the value of pIC50 reported for the following: "COC(=O)c1cc(NC(=O)CCCC(=O)NC2CC(C)(C)N([O])C(C)(C)C2)ccc1O"
Output: < 3.00

// data source = ChEMBL document CHEMBL1147128
